Molecular target: T1, 4H391-AA
T1 chain: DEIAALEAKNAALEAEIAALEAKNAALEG
Assay: two-hybrid library CCmax;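 further: natural log of median RNA to DNA barcode read ratio; higher means stronger binding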
Settings: mean of both orientations
Observed Property: interaction score
Respond using a number only.

[
  {
    "Binder": "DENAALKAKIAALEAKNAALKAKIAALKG [4H1854-AA]",
    "interaction score": 0.189
  },
  {
    "Binder": "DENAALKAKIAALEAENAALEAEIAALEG [4H1809-AA]",
    "interaction score": -1.47
  },
  {
    "Binder": "DKNAALKAEIAALKAENAALEAEIAALKG [4H3666-AA]",
    "interaction score": -1.26
  }
]

Q: // returns reported interaction score for input DKIAALKAKNAALEAKIAALKAKNAALEG [4H2991-AA]
A: 1.52

Q: Any idea what its interaction score is? The binder is DKIAALEAENAALKAKIAALKAENAALEG [4H2283-AA]
A: -0.595

Q: interaction score lookup needed for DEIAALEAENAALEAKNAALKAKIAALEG [4H189-AA] , thanks.
A: -1.47

# credit: paper PMC10397247
